# assayName: Inhibition of HCV 1a protease 1a domain
# Design: species or system Hepacivirus hominis
pIC50: −log10 of the molar value.
Measured pIC50, listed per entry for reference.
property: pIC50

COc1ccc2c(O[C@@H]3C[C@H]4C(=O)N[C@]5(C(=O)NS(=O)(=O)C6CC6)C[C@H]5/C=C\CCCCC[C@H](NC(=O)N5CCC(CC(=O)O)CC5)C(=O)N4C3)cc(-c3nc(C(C)C)cs3)nc2c1C: 9.05
COc1ccc2c(O[C@@H]3C[C@H]4C(=O)N[C@]5(C(=O)NS(=O)(=O)C6CC6)C[C@H]5/C=C\CCCCC[C@H](NC(=O)N(C(C)C)C(C)C)C(=O)N4C3)cc(-c3nc(C4CC4)cs3)nc2c1C: 8.70
COc1ccc2c(O[C@@H]3C[C@H]4C(=O)N[C@]5(C(=O)NS(=O)(=O)C6CC6)C[C@H]5/C=C\CCCCC[C@H](NC(=O)N(C)C)C(=O)N4C3)cc(-c3nc(C(C)C)cs3)nc2c1C: 8.70
